assay_remarks: chemical genetic growth profiling, strain panel (AID 1159580);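 note: tested at 20 µM; growth read once vehicle control cultures reached saturation at 30 °C; 1 = growth at the plate median or of vehicle wells; lower values mean less growth of the strain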
condition_context: S. cerevisiae deletion strains, growth OD, locus YNL209W, strain ssb2, hits give low values
In all, about 5,500 compounds went through this assay and about 2,000 (36%) were called active. Another 18% or so got no clear call; they are omitted. The list shows a part of the results.
measure_name: normalized growth
Please give only the number in your answer, with no unit.

// lookup normalized growth for O=c1[nH]cnc2[nH]ncc12
0.998

Also O=c1cc(-c2ccccc2)oc2cc(O)c(O)c(O)c12 ?
0.185

Also C[C@@H]1O[C@@H](O[C@H]2C[C@@H](O)[C@]3(CO)C4C(CC[C@]3(O)C2)[C@@]2(O)CC[C@H](C3=CC(=O)OC3)[C@@]2(C)C[C@H]4O)[C@H](O)[C@H](O)[C@H]1O (some centres not stated) ?
1.02

Also CCOC(=O)[C@H](CCc1ccccc1)N[C@@H](C)C(=O)N1Cc2ccccc2C[C@H]1C(=O)O ?
0.994

Also CN[C@@H]1[C@H](OC2[C@H](O[C@H]3[C@H](O)[C@@H](O)[C@H](N=C(N)N)[C@@H](O)[C@@H]3N=C(N)N)O[C@@H](C)[C@]2(O)C=O)O[C@@H](CO)[C@H](O)[C@H]1O (some centres not stated) ?
0.998

Also COc1cc([C@@H]2c3cc4c(cc3[C@H](OC(C)=O)[C@H]3COC(=O)[C@@H]23)OCO4)cc(OC)c1OC ?
0.989

Also CO[C@]12C[C@@H](COC(=O)c3cncc(Br)c3)CN(C)[C@@H]1Cc1cn(C)c3cccc2c13 ?
0.996

====

assay_remarks: chemical genetic growth profiling, strain panel (AID 1159580);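 note: tested at 20 µM; growth read once vehicle control cultures reached saturation at 30 °C; 1 = growth at the plate median or of vehicle wells; lower values mean less growth of the strain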
condition_context: S. cerevisiae deletion strains, growth OD, locus YOR080W, strain dia2, hits give low values
In all, about 5,500 compounds went through this assay and about 2,000 (36%) were called active. Roughly 18% stayed inconclusive and do not appear here. The list shows a part of the results.
measure_name: normalized growth
Please give only the number in your answer, with no unit.

// lookup normalized growth for CC1=C2[C@H]3OC(=O)[C@@H](C)[C@@H]3CC[C@@]2(C)C=CC1=O
0.97

Also CCOC(=O)[C@H](CCc1ccccc1)N[C@@H](C)C(=O)N1Cc2ccccc2C[C@H]1C(=O)O ?
1.01

Also CC(=O)N=c1sc(S(N)(=O)=O)nn1C ?
1.02

Also COc1cc(OC)c(OC)cc1C=O ?
0.987

Also CCC(=O)Nc1ccc(Cl)c(Cl)c1 ?
0.956

Also Nc1cc(-c2ccncc2)c[nH]c1=O ?
0.965

Also CC(CN(C)C)CN1c2ccccc2Sc2ccccc21 (stereo not given) ?
1.02

Also O=c1cc(-c2ccccc2)oc2cc(O)c(O)cc12 ?
0.976

Also CO[C@]12C[C@@H](COC(=O)c3cncc(Br)c3)CN(C)[C@@H]1Cc1cn(C)c3cccc2c13 ?
0.983

Also CN(C)CCOC(=O)COc1ccc(Cl)cc1 ?
0.952

Also CCCCCC1C(=O)CCC1CC(=O)OC (stereo not given) ?
0.974

Also O=[N+]([O-])c1cccc2cn[nH]c12 ?
1.01

Also NC(N)=O ?
1.02

Also O=C(O)CCCOc1ccc(Cl)cc1Cl ?
0.925

Also c1ccc2c(c1)CN1CCCC1=N2 ?
0.992

Also NC(=O)c1ncn(C2O[C@H](CO)[C@@H](O)[C@H]2O)c1N (stereo not given in full) ?
1.05

Also C[C@@H]1O[C@@H](O[C@H]2C[C@@H](O)[C@]3(CO)C4C(CC[C@]3(O)C2)[C@@]2(O)CC[C@H](C3=CC(=O)OC3)[C@@]2(C)C[C@H]4O)[C@H](O)[C@H](O)[C@H]1O (stereo not given in full) ?
1.03

Also NCC(CC(=O)O)c1ccc(Cl)cc1 (stereo not given) ?
0.997

Also Cc1cc(O)c(C=O)c2c1C(=O)Oc1c(COC(=O)/C=C/C(=O)O)c(O)c(C(=O)O)c(C)c1O2 ?
1.02

Also C=C[C@H]1CN2CC[C@H]1C[C@@H]2[C@H](O)c1ccnc2ccccc12 ?
0.985

Also O=c1cc(-c2ccccc2)oc2c(O)c(O)ccc12 ?
0.996

Also O=C(Nc1ccccc1)Nc1ccccc1 ?
0.963

Also N[C@@H]1[C@@H](O)[C@H](O)[C@@H](CO)O[C@H]1O ?
1.04

Also CC(=O)Nc1ccccc1 ?
0.961

Also C[C@]12C=CC(=O)C=C1CCC1C3C[C@@H](O)[C@](O)(C(=O)CO)[C@@]3(C)C[C@H](O)[C@@]12F (stereo not given in full) ?
0.987

Also CCN(CC)C(C)CN1c2ccccc2Sc2ccccc21 (stereo not given) ?
1

Also CC(CN1c2ccccc2Sc2ccccc21)N(C)C (stereo not given) ?
0.963

Also O=c1cc(-c2cc(O)c(O)c(O)c2)oc2cc(O)cc(O)c12 ?
0.993

Also NC(Cc1ccc(F)cc1)C(=O)O (stereo not given) ?
1.02

Also S=P(N1CC1)(N1CC1)N1CC1 ?
1
